pIC50, UniProt Q460N5: measured values
Sequence (Q460N5 whole entry): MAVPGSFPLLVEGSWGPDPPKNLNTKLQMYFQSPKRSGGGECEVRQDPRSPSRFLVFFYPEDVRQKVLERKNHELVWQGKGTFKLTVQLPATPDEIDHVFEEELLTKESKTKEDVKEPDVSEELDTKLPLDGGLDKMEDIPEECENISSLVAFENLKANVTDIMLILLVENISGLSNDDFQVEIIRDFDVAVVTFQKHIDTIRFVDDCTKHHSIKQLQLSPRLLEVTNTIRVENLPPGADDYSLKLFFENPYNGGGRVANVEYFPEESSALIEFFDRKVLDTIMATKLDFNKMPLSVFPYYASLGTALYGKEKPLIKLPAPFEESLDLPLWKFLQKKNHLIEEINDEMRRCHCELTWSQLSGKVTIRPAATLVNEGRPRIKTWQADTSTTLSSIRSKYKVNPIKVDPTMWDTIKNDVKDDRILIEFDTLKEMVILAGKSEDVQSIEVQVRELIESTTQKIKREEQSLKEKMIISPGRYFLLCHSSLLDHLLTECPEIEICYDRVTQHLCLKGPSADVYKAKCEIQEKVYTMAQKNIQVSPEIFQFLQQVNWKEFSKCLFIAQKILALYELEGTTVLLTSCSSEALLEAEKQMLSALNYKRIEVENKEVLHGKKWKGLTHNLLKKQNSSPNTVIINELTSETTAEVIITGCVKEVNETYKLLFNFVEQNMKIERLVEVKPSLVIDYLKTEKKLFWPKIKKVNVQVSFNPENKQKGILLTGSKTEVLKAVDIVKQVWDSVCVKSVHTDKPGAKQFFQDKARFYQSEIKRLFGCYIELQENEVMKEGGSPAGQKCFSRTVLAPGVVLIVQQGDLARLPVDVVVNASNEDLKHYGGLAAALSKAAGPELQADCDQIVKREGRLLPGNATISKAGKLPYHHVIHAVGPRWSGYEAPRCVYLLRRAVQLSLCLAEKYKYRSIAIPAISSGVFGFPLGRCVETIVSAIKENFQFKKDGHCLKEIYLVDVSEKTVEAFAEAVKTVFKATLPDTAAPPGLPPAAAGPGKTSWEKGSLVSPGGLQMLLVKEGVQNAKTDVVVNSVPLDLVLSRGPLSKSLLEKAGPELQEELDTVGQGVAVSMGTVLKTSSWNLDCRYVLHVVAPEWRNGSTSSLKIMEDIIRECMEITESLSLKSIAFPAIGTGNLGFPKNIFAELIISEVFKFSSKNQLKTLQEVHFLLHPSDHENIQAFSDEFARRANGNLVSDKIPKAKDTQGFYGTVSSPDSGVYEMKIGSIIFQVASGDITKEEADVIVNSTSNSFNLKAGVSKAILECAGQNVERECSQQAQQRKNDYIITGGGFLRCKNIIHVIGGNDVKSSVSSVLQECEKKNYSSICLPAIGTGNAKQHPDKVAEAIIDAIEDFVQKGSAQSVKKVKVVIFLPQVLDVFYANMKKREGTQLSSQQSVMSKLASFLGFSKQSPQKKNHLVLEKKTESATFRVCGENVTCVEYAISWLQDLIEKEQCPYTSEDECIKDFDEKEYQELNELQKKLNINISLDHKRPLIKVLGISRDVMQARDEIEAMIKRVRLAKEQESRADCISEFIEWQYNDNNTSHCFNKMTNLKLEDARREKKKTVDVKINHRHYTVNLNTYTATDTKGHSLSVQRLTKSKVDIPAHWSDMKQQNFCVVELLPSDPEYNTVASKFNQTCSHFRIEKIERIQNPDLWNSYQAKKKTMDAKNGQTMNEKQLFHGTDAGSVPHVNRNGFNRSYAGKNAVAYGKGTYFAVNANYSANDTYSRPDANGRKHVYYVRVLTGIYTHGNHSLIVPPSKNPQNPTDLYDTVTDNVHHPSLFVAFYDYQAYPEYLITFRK
pIC50: −log10 of the molar value.

// query Which measured pIC50 value corresponds to "COc1ccc2[nH]c3c(-c4ccccc4NC(C)=O)cccc3c2c1" ?
// result < 4.30

// query # lookup: pIC50 of CC(Nc1ccccc1-c1cccc2c1[nH]c1ccccc12)C(F)(F)F (racemic)
// result < 4.30

// query Requested read-out: pIC50. Entry: "CC(=O)Nc1ccccc1-c1cccc2c(C(C)C)c[nH]c12"
// result 4.74

// query What value of pIC50 has been recorded for this entry: "CC(=O)Nc1ccccc1-c1cccc2c3c([nH]c12)CCNC3"
// result < 4.30

// data source = ChEMBL document CHEMBL4219165
